Every entry's value here was drawn from ChEMBL document CHEMBL2424659.

Target: Type-1 angiotensin II receptor (Oryctolagus cuniculus, UniProt P34976)
Sequence (P34976 whole entry): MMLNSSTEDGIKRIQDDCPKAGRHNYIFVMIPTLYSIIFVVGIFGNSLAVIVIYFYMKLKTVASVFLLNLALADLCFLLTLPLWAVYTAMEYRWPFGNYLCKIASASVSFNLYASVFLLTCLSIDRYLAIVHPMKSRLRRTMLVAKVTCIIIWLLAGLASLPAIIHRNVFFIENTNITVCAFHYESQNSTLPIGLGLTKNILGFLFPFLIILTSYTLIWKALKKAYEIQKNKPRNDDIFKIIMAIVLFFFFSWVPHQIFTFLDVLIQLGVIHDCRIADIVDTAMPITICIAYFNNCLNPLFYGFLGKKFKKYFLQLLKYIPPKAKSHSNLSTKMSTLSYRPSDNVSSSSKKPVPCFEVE
Experiment: Antagonist activity at AT1 receptor in rabbit aorta membranes
recordedMetric: IC50 (nM)
Answers are plain numbers, in nM.

IC50 reading for "CCCCC(=O)Nc1ccc(C)c(-n2nc(CCCC)n(Cc3ccc(-c4ccccc4S(=O)(=O)NC(=O)c4ccccc4Cl)cc3)c2=O)c1" : 24
